Target or test system: Solute carrier organic anion transporter family member 1B3 (Homo sapiens)
Sequence (Q9NPD5 whole entry): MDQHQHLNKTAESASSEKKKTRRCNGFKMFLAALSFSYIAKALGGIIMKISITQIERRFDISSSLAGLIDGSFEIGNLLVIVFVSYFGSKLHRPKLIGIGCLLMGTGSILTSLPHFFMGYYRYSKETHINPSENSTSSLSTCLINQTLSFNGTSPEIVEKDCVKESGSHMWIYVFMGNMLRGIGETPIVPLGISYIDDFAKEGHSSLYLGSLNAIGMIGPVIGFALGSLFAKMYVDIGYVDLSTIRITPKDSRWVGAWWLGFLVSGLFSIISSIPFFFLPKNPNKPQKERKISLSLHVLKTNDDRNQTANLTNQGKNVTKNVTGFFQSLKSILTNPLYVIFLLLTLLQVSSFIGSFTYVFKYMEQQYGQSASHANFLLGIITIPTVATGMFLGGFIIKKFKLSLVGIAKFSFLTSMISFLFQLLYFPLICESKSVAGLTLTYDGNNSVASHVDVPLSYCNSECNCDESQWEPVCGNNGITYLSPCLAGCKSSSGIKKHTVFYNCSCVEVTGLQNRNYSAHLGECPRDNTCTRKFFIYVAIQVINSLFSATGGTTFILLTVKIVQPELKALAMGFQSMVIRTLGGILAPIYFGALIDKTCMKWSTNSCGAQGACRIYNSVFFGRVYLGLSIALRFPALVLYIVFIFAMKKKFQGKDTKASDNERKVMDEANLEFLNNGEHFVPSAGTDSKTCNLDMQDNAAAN
Cond: chinese hamster, cho, 10 µM
Below, each entry is listed alongside its reported residual activity.
Measured attribute: residual activity

{"Compound": "O=c1c(O)c(-c2ccccc2)oc2ccccc12 [FLAVONOL]", "Target or test system": "Solute carrier organic anion transporter family member 1B3 (Homo sapiens)", "Observed measurement": "102.6%"}
{"Compound": "Cc1ccc(/C(=C\\CN2CCCC2)c2ccccn2)cc1.Cl", "Target or test system": "Solute carrier organic anion transporter family member 1B3 (Homo sapiens)", "Observed measurement": "76.5%"}
{"Compound": "COc1ccc2c3c([nH]c2c1)C(C)=NCC3 [HARMALINE]", "Target or test system": "Solute carrier organic anion transporter family member 1B3 (Homo sapiens)", "Observed measurement": "115.9%"}
{"Compound": "C[C@@H]1CC[C@@]2(OC1)O[C@H]1C[C@H]3[C@@H]4CC[C@@]5(C)C[C@@H](O)CC[C@]5(C)[C@H]4CC(=O)[C@]3(C)[C@H]1[C@@H]2C [HECOGENIN]", "Target or test system": "Solute carrier organic anion transporter family member 1B3 (Homo sapiens)", "Observed measurement": "105.1%"}
{"Compound": "COC(=O)C[C@H]1C(C)(C)[C@@H](O)[C@@H]2CC3=C4C=C(OC)O[C@@H](c5ccoc5)[C@]4(C)CCC3[C@@]1(C)C2=O (some centres undefined)", "Target or test system": "Solute carrier organic anion transporter family member 1B3 (Homo sapiens)", "Observed measurement": "106.5%"}
{"Compound": "COc1cccc2c1CCC1=CC(=O)CC[C@@]12C", "Target or test system": "Solute carrier organic anion transporter family member 1B3 (Homo sapiens)", "Observed measurement": "94.94%"}
{"Compound": "O=C1C[C@@H](c2ccc(O)cc2)Oc2cc(O)cc(O)c21 [NARINGENIN]", "Target or test system": "Solute carrier organic anion transporter family member 1B3 (Homo sapiens)", "Observed measurement": "95.55%"}
{"Compound": "CC(=O)C1=C(O)C=C2Oc3c(C(C)=O)c(O)c(C)c(O)c3[C@@]2(C)C1=O [(+)-USNIC ACID]", "Target or test system": "Solute carrier organic anion transporter family member 1B3 (Homo sapiens)", "Observed measurement": "69.13%"}
{"Compound": "CN(C)c1ccc(C(=C2C=CC(=[N+](C)C)C=C2)c2ccc(N(C)C)cc2)cc1.[Cl-] [GENTIAN VIOLET]", "Target or test system": "Solute carrier organic anion transporter family member 1B3 (Homo sapiens)", "Observed measurement": "92.5%"}
{"Compound": "CCCCCCCCCc1ccc(OCCOCCOCCOCCOCCOCCOCCOCCOCCO)cc1 [NONOXYNOL 9]", "Target or test system": "Solute carrier organic anion transporter family member 1B3 (Homo sapiens)", "Observed measurement": "27.96%"}
{"Compound": "CCCN1C[C@H](CSC)C[C@@H]2c3cccc4[nH]cc(c34)C[C@H]21.CS(=O)(=O)O [PERGOLIDE MESYLATE]", "Target or test system": "Solute carrier organic anion transporter family member 1B3 (Homo sapiens)", "Observed measurement": "85.27%"}
{"Compound": "COc1ccc2c(c1)OC/C(=C/c1ccc(O)c(O)c1)C2=O [SAPPANONE A 7-METHYL ETHER]", "Target or test system": "Solute carrier organic anion transporter family member 1B3 (Homo sapiens)", "Observed measurement": "107.8%"}
{"Compound": "Br.COC(=O)C1=CCCN(C)C1 [ARECOLINE HYDROBROMIDE]", "Target or test system": "Solute carrier organic anion transporter family member 1B3 (Homo sapiens)", "Observed measurement": "103.7%"}
{"Compound": "COC(=O)C(O)c1ccccc1 (centres undefined) [MANDELIC ACID, METHYL ESTER]", "Target or test system": "Solute carrier organic anion transporter family member 1B3 (Homo sapiens)", "Observed measurement": "76.32%"}
{"Compound": "CC(C)(O)[C@@H]1[C@H]2OC(=O)[C@@H]1[C@]1(O)C[C@H]3O[C@]34C(=O)O[C@H]2[C@]14C [PICROTIN]", "Target or test system": "Solute carrier organic anion transporter family member 1B3 (Homo sapiens)", "Observed measurement": "89.14%"}
{"Compound": "NC(CO)(CO)CO.O=C(c1ccccc1)c1ccc2n1CCC2C(=O)O (centres undefined) [KETOROLAC TROMETHAMINE]", "Target or test system": "Solute carrier organic anion transporter family member 1B3 (Homo sapiens)", "Observed measurement": "87.08%"}
{"Compound": "CC(=O)OCC(=O)[C@@]1(O)[C@H](OC(C)=O)C[C@H]2[C@@H]3CCC4=CC(=O)C=C[C@]4(C)[C@@]3(F)[C@@H](O)C[C@@]21C [TRIAMCINOLONE DIACETATE]", "Target or test system": "Solute carrier organic anion transporter family member 1B3 (Homo sapiens)", "Observed measurement": "104.9%"}
{"Compound": "CCC(C)C(=O)O[C@@H]1C[C@@]2(C)[C@H](c3ccoc3)OC(=O)CC23OC2(C)O[C@]14[C@]1(C)[C@@H](CC(=O)OC)C5(C)CC1(O)[C@](O)(C5OC(=O)C1(C)OC1C)[C@@H](OC(C)=O)[C@]34O2 (some centres undefined) [UTILIN]", "Target or test system": "Solute carrier organic anion transporter family member 1B3 (Homo sapiens)", "Observed measurement": "2.658%"}
{"Compound": "CN1CCCC(n2nc(Cc3ccc(Cl)cc3)c3ccccc3c2=O)CC1.Cl (centres undefined) [AZELASTINE HYDROCHLORIDE]", "Target or test system": "Solute carrier organic anion transporter family member 1B3 (Homo sapiens)", "Observed measurement": "134.9%"}
{"Compound": "Cc1ccc2c(c1)CC[C@H]1CC(=O)CC[C@]21C", "Target or test system": "Solute carrier organic anion transporter family member 1B3 (Homo sapiens)", "Observed measurement": "93.8%"}
{"Compound": "CC[C@@]1(O)C[C@H](O[C@H]2C[C@H](N(C)C)[C@H](O[C@H]3C[C@H](O)[C@H](O[C@H]4CCC(=O)[C@H](C)O4)[C@H](C)O3)[C@H](C)O2)c2c(cc3c(c2O)C(=O)c2c(O)cccc2C3=O)[C@H]1C(=O)OC [ACLARUBICIN]", "Target or test system": "Solute carrier organic anion transporter family member 1B3 (Homo sapiens)", "Observed measurement": "107.1%"}
{"Compound": "COc1cc2ccc(=O)oc2c(O)c1O [FRAXETIN]", "Target or test system": "Solute carrier organic anion transporter family member 1B3 (Homo sapiens)", "Observed measurement": "106.2%"}
{"Compound": "C/C=C(/C)C(=O)O[C@@H]1c2c(ccc3ccc(=O)oc23)OC(C)(C)[C@@H]1OC(C)=O [PTERYXIN]", "Target or test system": "Solute carrier organic anion transporter family member 1B3 (Homo sapiens)", "Observed measurement": "114.3%"}
{"Compound": "CCN(CC)CCOC(=O)C1(C2CCCCC2)CCCCC1.Cl [DICYCLOMINE HYDROCHLORIDE]", "Target or test system": "Solute carrier organic anion transporter family member 1B3 (Homo sapiens)", "Observed measurement": "105.3%"}
{"Compound": "COc1ccc(-c2cc(=O)c3c(OC(C)=O)cc(OC(C)=O)cc3o2)cc1 [ACACETIN DIACETATE]", "Target or test system": "Solute carrier organic anion transporter family member 1B3 (Homo sapiens)", "Observed measurement": "127.6%"}
{"Compound": "C=C1[C@H]2CC[C@@]3(C)[C@H](c4ccoc4)OC(=O)C[C@]13O[C@H]1C[C@H](O)C(C)(C)[C@H](CC(=O)OC)[C@]12C", "Target or test system": "Solute carrier organic anion transporter family member 1B3 (Homo sapiens)", "Observed measurement": "59.13%"}
{"Compound": "CON.Cl [METHOXYAMINE HYDROCHLORIDE]", "Target or test system": "Solute carrier organic anion transporter family member 1B3 (Homo sapiens)", "Observed measurement": "108.6%"}
{"Compound": "C[C@@H]1O[C@H](O[C@@H]2[C@@H](O)[C@H](O[C@@H]3[C@@H](O)[C@@H](O)[C@@H](O[C@H]4[C@@H](OC(=O)[C@]56CCC(C)(C)C[C@@H]5C5=CC[C@@H]7[C@@]8(C)CC[C@H](O[C@@H]9O[C@H](CO)[C@@H](O)[C@H](O)[C@H]9O)C(C)(C)[C@@H]8CC[C@@]7(C)[C@]5(C)C[C@H]6O)OC[C@@H](O)[C@@H]4O)O[C@H]3C)OC[C@H]2O)[C@H](O)[C@H](O)[C@H]1O", "Target or test system": "Solute carrier organic anion transporter family member 1B3 (Homo sapiens)", "Observed measurement": "17.42%"}
{"Compound": "CCCCC(CC)CN1CN(CC(CC)CCCC)CC(C)(N)C1 (centres undefined) [HEXETIDINE]", "Target or test system": "Solute carrier organic anion transporter family member 1B3 (Homo sapiens)", "Observed measurement": "102.1%"}
